Values compiled from BigSolDB 2.1.

Run Parameters: in ethanol, 313.15 K
Result Type: solubility (mole fraction)

[
  {
    "Given Smiles": "C[C@]12CCC3=C4CCC(=O)C=C4CC[C@H]3[C@@H]1CC[C@@]2(O)CC#N",
    "Result Type": "solubility (mole fraction)",
    "Reported": 0.00524
  }
]

* * *

Run Parameters: in water, 313.15 K

[
  {
    "Given Smiles": "C[C@]12CCC3=C4CCC(=O)C=C4CC[C@H]3[C@@H]1CC[C@@]2(O)CC#N",
    "solubility (mole fraction)": "1.13e-05"
  }
]

* * *

Run Parameters: in isopropanol, 288.15 K

[
  {
    "Given Smiles": "C[C@]12CCC3=C4CCC(=O)C=C4CC[C@H]3[C@@H]1CC[C@@]2(O)CC#N",
    "solubility (mole fraction)": 0.00131
  }
]
